- Tested System: CNGA3 plus CNGB3-F525N channels (Homo sapiens, UniProt Q16281+Q9NQW8, F525N)
- Construct: expressed in transfected cells; host or cells: Xenopus laevis oocytes injected with cRNA transcribed from pGEMHE constructs
- Sequence (Q16281 whole entry): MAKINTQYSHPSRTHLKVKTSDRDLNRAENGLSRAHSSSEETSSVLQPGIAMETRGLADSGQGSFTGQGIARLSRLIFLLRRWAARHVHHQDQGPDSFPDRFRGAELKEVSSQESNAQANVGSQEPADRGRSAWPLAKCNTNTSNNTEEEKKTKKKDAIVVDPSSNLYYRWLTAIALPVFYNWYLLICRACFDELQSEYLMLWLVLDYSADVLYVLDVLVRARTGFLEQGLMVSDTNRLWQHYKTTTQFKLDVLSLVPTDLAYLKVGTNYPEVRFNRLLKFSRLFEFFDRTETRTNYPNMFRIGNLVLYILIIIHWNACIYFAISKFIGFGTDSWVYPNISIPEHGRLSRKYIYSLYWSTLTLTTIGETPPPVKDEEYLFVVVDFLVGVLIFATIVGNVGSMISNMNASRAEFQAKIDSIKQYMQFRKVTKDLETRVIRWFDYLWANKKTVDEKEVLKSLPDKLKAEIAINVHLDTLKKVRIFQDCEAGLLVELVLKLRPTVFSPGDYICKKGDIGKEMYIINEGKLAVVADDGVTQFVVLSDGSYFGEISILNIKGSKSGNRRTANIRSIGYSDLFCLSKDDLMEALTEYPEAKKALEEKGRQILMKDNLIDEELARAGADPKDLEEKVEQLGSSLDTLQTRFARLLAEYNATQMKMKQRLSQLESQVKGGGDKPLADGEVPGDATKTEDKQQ
- Sequence (Q9NQW8 whole entry F525N): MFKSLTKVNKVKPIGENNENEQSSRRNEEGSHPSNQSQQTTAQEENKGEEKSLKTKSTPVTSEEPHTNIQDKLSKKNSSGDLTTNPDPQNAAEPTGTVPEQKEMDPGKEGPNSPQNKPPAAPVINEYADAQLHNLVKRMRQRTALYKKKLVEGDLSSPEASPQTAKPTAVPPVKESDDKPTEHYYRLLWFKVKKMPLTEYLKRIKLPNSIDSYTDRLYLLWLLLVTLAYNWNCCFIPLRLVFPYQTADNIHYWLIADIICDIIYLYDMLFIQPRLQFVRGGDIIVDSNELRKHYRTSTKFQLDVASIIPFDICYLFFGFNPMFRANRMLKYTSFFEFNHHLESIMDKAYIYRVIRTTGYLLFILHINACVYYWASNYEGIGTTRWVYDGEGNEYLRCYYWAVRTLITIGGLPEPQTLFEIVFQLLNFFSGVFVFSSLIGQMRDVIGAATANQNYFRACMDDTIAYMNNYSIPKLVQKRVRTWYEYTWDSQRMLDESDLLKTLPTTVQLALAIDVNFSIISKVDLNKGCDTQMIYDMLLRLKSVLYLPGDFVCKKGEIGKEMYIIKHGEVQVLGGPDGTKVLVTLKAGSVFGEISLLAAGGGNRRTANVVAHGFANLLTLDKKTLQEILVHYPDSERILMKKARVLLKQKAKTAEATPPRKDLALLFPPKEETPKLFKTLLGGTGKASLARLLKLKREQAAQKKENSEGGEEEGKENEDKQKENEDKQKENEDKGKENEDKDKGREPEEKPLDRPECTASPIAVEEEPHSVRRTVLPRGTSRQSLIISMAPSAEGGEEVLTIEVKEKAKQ
- Measurement Description: Inside-out patch-clamp recording of channels expressed in Xenopus oocytes (CNGB3 F525N)
- Type: biochemical
- Reported Conditions: in the presence of 0.1 µM CPT-cGMP, intracellular face; mean±SEM, n=5; read-out: apparent affinity for L-cis-diltiazem K1/2, L-cis-dilt. (channel block)
Quantity Measured: IC50 (µM)

• COc1ccc([C@@H]2Sc3ccccc3N(CCN(C)C)C(=O)[C@@H]2OC(C)=O)cc1 [L-cis-diltiazem] = 3.03
